Molecular target: human MC4R receptor (human, UniProt P32245 1-332)
Sequence (P32245 whole entry): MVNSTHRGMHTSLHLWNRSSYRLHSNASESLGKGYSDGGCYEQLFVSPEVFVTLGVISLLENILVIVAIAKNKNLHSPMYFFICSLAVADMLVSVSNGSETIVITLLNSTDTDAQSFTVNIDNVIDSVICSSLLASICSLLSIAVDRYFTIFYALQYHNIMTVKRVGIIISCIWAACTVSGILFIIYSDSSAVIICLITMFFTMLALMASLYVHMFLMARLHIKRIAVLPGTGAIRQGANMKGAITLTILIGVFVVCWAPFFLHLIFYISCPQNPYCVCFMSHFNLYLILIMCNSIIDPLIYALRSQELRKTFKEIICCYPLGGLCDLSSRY
Experiment: cell-based or functional assay
Positions of bridges follow the written chain, without caps; N, C: chain ends. Non-standard residues stand in square brackets, D forms with d. Cit = NC(=O)NCCC[C@H](N)C(=O)O; Aib = CC(C)(N)C(=O)O
For each record, write down the corresponding % max activation.
Your answer should be a plain number; it is taken to be in %.

[in] Returns the measured % max activation for the input binder. Input: {CH2CO}-GH[dF]RWC-NH2 (thioether N-6; SMILES N=C(N)NCCC[C@@H]1NC(=O)[C@@H](Cc2ccccc2)NC(=O)[C@H](Cc2c[nH]cn2)NC(=O)CNC(=O)CSC[C@@H](C(N)=O)NC(=O)[C@H](Cc2c[nH]c3ccccc23)NC1=O) [CTX-1644]
[out] 111

[in] Given the binder {CH2CO}-[dA][Cit][dF]RWC-NH2 (thioether N-6; SMILES C[C@H]1NC(=O)CSC[C@@H](C(N)=O)NC(=O)[C@H](Cc2c[nH]c3ccccc23)NC(=O)[C@H](CCCNC(=N)N)NC(=O)[C@@H](Cc2ccccc2)NC(=O)[C@H](CCCNC(N)=O)NC1=O) [CTX-1643] , what is its reported % max activation?
[out] 111

[in] Could you share which % max activation value was measured for Ac-C[Aib]H[dF]RFC-NH2 (disulfide 1-7; SMILES CC(=O)N[C@H]1CSSC[C@@H](C(N)=O)NC(=O)[C@H](Cc2ccccc2)NC(=O)[C@H](CCCNC(=N)N)NC(=O)[C@@H](Cc2ccccc2)NC(=O)[C@H](Cc2c[nH]cn2)NC(=O)C(C)(C)NC1=O) [CTX-1634] ?
[out] 107
